# protocol_description: 1H-NMR titration of template/functional monomer complexation
# Format: binding
# experimental_conditions: S template, 1:1 complex, d6-DMSO, 25 °C; read-out: app. Kdiss with MAA, template's hydroxyl group
Counter-ions that a name gives are not always drawn.
value_kind: pKd
Keep it numeric: pKd is minus log10 of the concentration in mol/L.

// sample NCCc1c[nH]c2ccc(O)cc12 [S, serotonin hydrochloride] , its pKd was 3.17

* * *

# protocol_description: Time course of binding of ergot compounds to DS-MIP (HPLC-ECD assay)
# experimental_conditions: 4:1 (v/v) methanol/water, 28 ± 1 °C
Counter-ions that a name gives are not always drawn.
value_kind: binding to DS-MIP, fold lower than agroclavine

Check out these entries, answers already filled in.
| compound | observed |
| --- | --- |
| CC(C)C[C@H]1C(=O)N2CCC[C@H]2[C@]2(O)O[C@](NC(=O)[C@@H]3C=C4c5cccc6[nH]cc(c56)C[C@H]4N(C)C3)(C(C)C)C(=O)N12 | about 2 fold |
| CC(C)[C@H]1C(=O)N2CCC[C@H]2[C@]2(O)O[C@](NC(=O)[C@@H]3C=C4c5cccc6[nH]cc(c56)C[C@H]4N(C)C3)(C(C)C)C(=O)N12 | about 2 fold |
| C[C@@H](CO)NC(=O)[C@@H]1C=C2c3cccc4[nH]cc(c34)C[C@H]2N(C)C1 [Ergonovine, ergonovine maleate] | ~ 1.25 fold |
| CCN(CC)C(=O)N[C@H]1C[C@@H]2c3cccc4[nH]cc(c34)C[C@H]2N(C)C1 [Terguride, terguride] | ~ 1.25 fold |
| CC(C)[C@@]1(NC(=O)[C@@H]2C=C3c4cccc5[nH]cc(c45)C[C@H]3N(C)C2)O[C@@]2(O)[C@@H]3CCCN3C(=O)[C@H](Cc3ccccc3)N2C1=O | about 2 fold |

// sample CCCN1C[C@H](CSC)C[C@@H]2c3cccc4[nH]cc(c34)C[C@H]21 [Pergolide, pergolide mesylate] , its binding to DS-MIP, fold lower than agroclavine was ~ 1.25 fold

* * *

# protocol_description: Competitive ligand binding assay on DS-MIP with D as fluorescent probe
# experimental_conditions: 25 mg polymer, D 6.60 μM, 5 mL 4:1 methanol/water, 28 ± 1 °C, mean ± SD, n = 3
# Protocol: In this study, DS-MIP was employed as the sorbent phase for the determination of binding characteristics of the ergot family of alkaloids by competitive ligand binding assay experiment. The ability of the various ergot alkaloids (ergocryptine, ergocornine, ergocristine, ergonovine, agroclavine, pergolide and terguride) to displace bound D and S from the binding sites was measured. Figures 8(a,b) show competitive binding assays with the ergots in the presence of D and S as fluorescent probes. […]
Structures can show the parent of a compound that is named as a salt.
value_kind: pKi
Keep it numeric: pKi is minus log10 of the concentration in mol/L.

// sample CC1=C[C@@H]2c3cccc4[nH]cc(c34)C[C@H]2N(C)C1 , its pKi was 6.40

// sample C[C@@H](CO)NC(=O)[C@@H]1C=C2c3cccc4[nH]cc(c34)C[C@H]2N(C)C1 [Ergonovine, ergonovine maleate] , its pKi was 4.16

* * *

# protocol_description: 1H-NMR titration of template/functional monomer complexation
# Assay type: binding
# experimental_conditions: S template, d6-DMSO, 25 °C; read-out: app. Kdiss with ACM, template's hydroxyl group
Structures can show the parent of a compound that is named as a salt.
value_kind: Kd (µM)
Only the number, expressed in µM, is required.

// sample NCCc1c[nH]c2ccc(O)cc12 [S, serotonin hydrochloride] , its Kd was 190
